Molecular target: T1, ARHGAP21, Q5T5U3
T1 sequence (Q5T5U3 45-169, limits assumed, looked up): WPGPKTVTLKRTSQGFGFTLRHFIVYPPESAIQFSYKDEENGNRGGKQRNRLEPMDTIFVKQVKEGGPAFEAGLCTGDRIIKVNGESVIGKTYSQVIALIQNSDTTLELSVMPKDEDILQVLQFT
Assay: holdup assay
Set-up: key: below the threshold = too weak to quantify, mostly under pKd 3.1 to 4
Settings: plain residues with an end cap or a label only (N-terminal biotin on a linker: ado-ado)
READOUT: pKd

1) SSSVNVSSNL [CXCR1, P25024]; 3.77
2) KKTPVSRSHL [SLC22A3, O75751]; 3.97
